Entry source: patent US20120108585A1

target: SIRT1 (Homo sapiens, UniProt Q96EB6); assay: mass spectrometry based assay to identify modulators of SIRT1 activity (deacetylation of p53-based acetylated peptide); format: biochemical; conditions: 25 min; SIRT1 activation; 10 nM SIRT1, 0.5 μM peptide substrate, 120 μM βNAD+, 25 minutes at 25° C.; read-out: % Fold Act. (percent maximum fold activation)
reported.metric: Emax

stdin: Supply measured Emax of `O=C(Nc1ccccn1)c1cccc2oc(-c3ccc(F)cc3C(F)(F)F)nc12` in your reply.
stdout: < 150%

stdin: Supply measured Emax of `O=C(Nc1cccc2oc(-c3cccc(C(F)(F)F)c3)nc12)c1cnccn1` in your reply.
stdout: < 150%

stdin: Supply measured Emax of `O=C(Nc1cccc(CN2CCOCC2)n1)c1cccc2nc(-c3ccc(F)cc3C(F)(F)F)oc12` in your reply.
stdout: > 150%

stdin: Supply measured Emax of `O=C(Nc1ccccn1)c1cccc2nc(-c3ccccc3C(F)(F)F)oc12` in your reply.
stdout: > 150%

---

target: SIRT1 (Homo sapiens); experiment: mass spectrometry based assay to identify modulators of SIRT1 activity (deacetylation of p53-based acetylated peptide); format: biochemical; details: SIRT1 activation; 10 nM SIRT1, 0.5 μM peptide substrate, 120 μM βNAD+, 25 minutes at 25° C.
reported.metric: EC1.5

Worked cases, answers included:
| compound | EC1.5 |
| --- | --- |
| O=C(Nc1ccccn1)c1cccc2oc(-c3ccccc3OC(F)(F)F)nc12 [Compound 142] | B (EC1-5 1-25 uM) |
| O=C(Nc1nc(CN2CCOCC2)cs1)c1cccc2nc(-c3ccc(F)cc3C(F)(F)F)oc12 [Compound 132] | B (EC1-5 1-25 uM) |
| O=C(Nc1ccccn1)c1cccc2sc(-c3cccc(N4CCOCC4)c3)nc12 [Compound 126] | C (EC1-5>25 uM) |
| O=C(Nc1cccnc1)c1cccc2sc(-c3cccc(C(F)(F)F)c3)nc12 [Compound 113] | C (EC1-5>25 uM) |
| O=C(Nc1nccs1)c1cccc2nc(-c3ccc(F)cc3C(F)(F)F)oc12 [Compound 130] | B (EC1-5 1-25 uM) |

stdin: Supply measured EC1.5 of O=C(Nc1nccs1)c1cccc2oc(-c3ccccc3C(F)(F)F)nc12 [Compound 137] in your reply.
stdout: B (EC1-5 1-25 uM)

stdin: Supply measured EC1.5 of O=C(Nc1nccs1)c1cccc2oc(-c3ccccc3OC(F)(F)F)nc12 [Compound 141] in your reply.
stdout: B (EC1-5 1-25 uM)

---

Biological target: SIRT1 (Homo sapiens, UniProt Q96EB6)
Experiment: mass spectrometry based assay to identify modulators of SIRT1 activity (deacetylation of p53-based acetylated peptide)
Format: biochemical
Settings: SIRT1 activation; 10 nM SIRT1, 0.5 μM peptide substrate, 120 μM βNAD+, 25 minutes at 25° C.
Source text: A mass spectrometry based assay was used to identify modulators of SIRT1 activity. The mass spectrometry based assay utilizes a peptide having 20 amino acid residues as follows: Ac-EE-K(biotin)-GQSTSSHSK(Ac)NleSTEG-K(5TMR)-EE-NH2 (SEQ ID NO: 1) wherein K(Ac) is an acetylated lysine residue and Nle is a norleucine. The peptide is labeled with the fluorophore 5TMR (excitation 540 nm/emission 580 nm) at the C-terminus. The sequence of the peptide substrate is based on p53 with several modifications. […]
reported.metric: EC1.5

Worked cases, answers included:
| substance.smiles | EC1.5 |
| --- | --- |
| O=C(Nc1ccccn1)c1cccc2nc(-c3cccc(C(F)(F)F)c3)oc12 | C (EC1-5>25 uM) |
| O=C(Nc1cccc(CN2CCOCC2)n1)c1cccc2oc(-c3cc(F)ccc3C(F)(F)F)nc12 | A (EC1-5<1.0 uM) |
| O=C(Nc1ccccn1)c1cccc2sc(-c3cccc(C(F)(F)F)c3)nc12 | C (EC1-5>25 uM) |
| O=C(Nc1ccccn1)c1cccc2sc(-c3cccnc3)nc12 | C (EC1-5>25 uM) |
| O=C(Nc1ccccn1)c1cccc2oc(-c3ccc(F)cc3C(F)(F)F)nc12 | B (EC1-5 1-25 uM) |
| O=C(Nc1cccc(N2CCCC2)n1)c1cccc2sc(-c3cccc(C(F)(F)F)c3)nc12 | B (EC1-5 1-25 uM) |

Next up:
stdin: Supply measured EC1.5 of `O=C(Nc1cccnc1)c1cccc2sc(-c3cccc(N4CCOCC4)c3)nc12` in your reply.
stdout: C (EC1-5>25 uM)

---

target: SIRT1 (Homo sapiens); assay: mass spectrometry based assay to identify modulators of SIRT1 activity (deacetylation of p53-based acetylated peptide); assay type: biochemical; conditions: SIRT1 activation; 10 nM SIRT1, 0.5 μM peptide substrate, 120 μM βNAD+, 25 minutes at 25° C.
reported.metric: EC1.5

| compound | reported.result |
| --- | --- |
| O=C(Nc1nccs1)c1cccc2nc(-c3ccccc3C(F)(F)F)oc12 [Compound 121] | B (EC1-5 1-25 uM) |
| O=C(Nc1cccc(CN2CCOCC2)n1)c1cccc2nc(-c3cc(F)ccc3C(F)(F)F)oc12 [Compound 136] | B (EC1-5 1-25 uM) |

---

Molecular target: SIRT1 (Homo sapiens)
Sequence (Q96EB6 1-747): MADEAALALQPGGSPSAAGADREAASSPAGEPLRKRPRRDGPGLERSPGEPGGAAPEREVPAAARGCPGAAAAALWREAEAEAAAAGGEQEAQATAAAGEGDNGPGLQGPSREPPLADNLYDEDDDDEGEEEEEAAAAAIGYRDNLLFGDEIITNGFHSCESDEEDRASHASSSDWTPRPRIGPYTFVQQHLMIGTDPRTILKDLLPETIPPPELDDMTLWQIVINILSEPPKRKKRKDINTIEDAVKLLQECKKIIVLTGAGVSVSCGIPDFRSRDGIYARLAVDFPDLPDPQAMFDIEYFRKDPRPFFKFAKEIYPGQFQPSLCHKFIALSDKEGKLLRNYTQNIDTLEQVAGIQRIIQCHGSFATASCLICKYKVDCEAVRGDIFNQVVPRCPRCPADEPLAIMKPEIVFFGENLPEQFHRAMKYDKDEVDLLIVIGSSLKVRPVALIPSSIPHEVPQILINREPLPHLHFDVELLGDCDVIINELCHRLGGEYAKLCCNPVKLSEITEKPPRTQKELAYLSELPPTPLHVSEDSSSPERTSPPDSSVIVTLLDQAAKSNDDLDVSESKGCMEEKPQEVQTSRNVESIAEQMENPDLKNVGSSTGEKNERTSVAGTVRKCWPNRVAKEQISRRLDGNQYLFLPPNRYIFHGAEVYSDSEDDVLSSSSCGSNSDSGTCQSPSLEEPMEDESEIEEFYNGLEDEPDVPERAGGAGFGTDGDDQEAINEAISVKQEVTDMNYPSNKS
Assay: mass spectrometry based assay to identify modulators of SIRT1 activity (deacetylation of p53-based acetylated peptide)
Type: biochemical
Settings: SIRT1 activation; 10 nM SIRT1, 0.5 μM peptide substrate, 120 μM βNAD+, 25 minutes at 25° C.
reported.metric: EC1.5

Worked cases, answers included:
| substance.smiles | target.entity | reported.result |
| --- | --- | --- |
| O=C(Nc1nccs1)c1ccnc2sc(-c3cccc(C(F)(F)F)c3)nc12 | SIRT1 (Homo sapiens) | C (EC1-5>25 uM) |
| O=C(Nc1nc(CN2CCOCC2)cs1)c1cccc2nc(-c3ccccc3OC(F)(F)F)oc12 | SIRT1 (Homo sapiens) | B (EC1-5 1-25 uM) |
| O=C(Nc1cccc(CN2CCOCC2)n1)c1cccc2oc(-c3ccccc3C(F)(F)F)nc12 | SIRT1 (Homo sapiens) | A (EC1-5<1.0 uM) |
| O=C(Nc1nccs1)c1cccc2sc(-c3cccc(C(F)(F)F)c3)nc12 | SIRT1 (Homo sapiens) | C (EC1-5>25 uM) |
| O=C(Nc1ccccn1)c1cccc2nc(-c3ccc(F)cc3C(F)(F)F)oc12 | SIRT1 (Homo sapiens) | B (EC1-5 1-25 uM) |

stdin: Supply measured EC1.5 of `O=C(Nc1nc(CN2CCOCC2)cs1)c1cccc2nc(-c3cc(F)ccc3C(F)(F)F)oc12` in your reply.
stdout: B (EC1-5 1-25 uM)

stdin: Supply measured EC1.5 of `O=C(Nc1cccc2oc(-c3cccc(OC(F)(F)F)c3)nc12)c1cnccn1` in your reply.
stdout: C (EC1-5>25 uM)

stdin: Supply measured EC1.5 of `O=C(Nc1nc(CN2CCOCC2)cs1)c1cccc2nc(-c3ccccc3C(F)(F)F)oc12` in your reply.
stdout: B (EC1-5 1-25 uM)

stdin: Supply measured EC1.5 of `O=C(Nc1cccc2oc(-c3cccc(OC(F)(F)F)c3)nc12)c1cscn1` in your reply.
stdout: C (EC1-5>25 uM)

stdin: Supply measured EC1.5 of `O=C(Nc1cccc2oc(-c3ccccc3)nc12)c1cnccn1` in your reply.
stdout: C (EC1-5>25 uM)

stdin: Supply measured EC1.5 of `O=C(Nc1cccc(CN2CCOCC2)n1)c1cccc2nc(-c3ccccc3C(F)(F)F)oc12` in your reply.
stdout: A (EC1-5<1.0 uM)
